# TARGET OR SYSTEM: CD73 (Homo sapiens (Human), UniProt P21589)
# Sequence (P21589 27-574): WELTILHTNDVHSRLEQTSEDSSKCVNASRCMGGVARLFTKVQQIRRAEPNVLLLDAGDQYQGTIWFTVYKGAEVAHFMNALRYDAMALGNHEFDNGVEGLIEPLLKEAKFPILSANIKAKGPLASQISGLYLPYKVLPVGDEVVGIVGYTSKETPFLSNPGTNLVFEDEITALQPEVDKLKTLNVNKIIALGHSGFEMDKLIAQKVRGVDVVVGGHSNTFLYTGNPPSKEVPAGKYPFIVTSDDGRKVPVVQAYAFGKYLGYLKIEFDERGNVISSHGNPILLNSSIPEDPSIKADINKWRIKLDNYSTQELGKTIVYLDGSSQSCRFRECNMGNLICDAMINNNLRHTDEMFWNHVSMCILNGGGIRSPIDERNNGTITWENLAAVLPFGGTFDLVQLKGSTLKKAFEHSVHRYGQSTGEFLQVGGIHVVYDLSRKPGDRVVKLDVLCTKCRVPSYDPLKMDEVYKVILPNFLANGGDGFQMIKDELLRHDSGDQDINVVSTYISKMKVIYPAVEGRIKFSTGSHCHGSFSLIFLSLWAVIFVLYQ
# PROTOCOL SUMMARY: MDA-MB-231 Cell Based CD73 Activity Assay (DMEM)
# EXPERIMENTAL CONDITIONS: MDA-MB-231-GFP cells, DMEM medium with 10% human plasma, 200 uM AMP
READOUT LABEL: EC50 (nM)

Guide cases for EC50, answers given:
>  <MOLECULE>
O=c1[nH]cc(-c2cc([C@H]3C[C@@H]3c3ncc(Cl)cc3F)c3ncc(F)n3n2)c(=O)[nH]1 (racemic) [Example 583]

>  <READOUT LABEL>
EC50

>  <OBSERVED RESULT>
9.53

$$$$
>  <MOLECULE>
O=c1[nH]cc(-c2cc([C@H]3C[C@@H]3c3ccc(C(F)(F)F)nc3)c3nccn3n2)c(=O)[nH]1 [Example 153]

>  <READOUT LABEL>
EC50

>  <OBSERVED RESULT>
8.85

$$$$
>  <MOLECULE>
N#Cc1cc(F)c([C@H]2C[C@@H]2c2cc(-c3c[nH]c(=O)[nH]c3=O)nn3ccnc23)cc1F

>  <READOUT LABEL>
EC50

>  <OBSERVED RESULT>
9.24

$$$$

P: O=c1[nH]cc(-c2cc([C@H]3C[C@@H]3c3ccc(Cl)cn3)c3nccn3n2)c(=O)[nH]1 (racemic) [Example 576]
Q: O=c1[nH]cc(-c2cc(N3CC[C@@H](OC(F)F)C3)c3nccn3n2)c(=O)[nH]1
Endpoint returns the identifier whose EC50 is numerically larger, either P or Q . Response format: the label of the selected entry.
Q
(Q: 11.9 nM, P: 6.9 nM)

###

# TARGET OR SYSTEM: CD73 (Homo sapiens (Human), UniProt P21589)
# Assay type: biochemical
# EXPERIMENTAL CONDITIONS: 1 mM NaH2PO4 in enzyme buffer, CD73 0.3 nM, AMP 15 uM
pIC50: −log10 of the molar value.
READOUT LABEL: pIC50

Reference set (2 entries):
>  <COMPOUND>
CC(C)NC(=O)OCC(F)(F)COc1cc(-c2c[nH]c(=O)[nH]c2=O)nn2ccnc12

>  <TARGET OR SYSTEM>
CD73 (Homo sapiens (Human), UniProt P21589)

>  <pIC50>
9.21

$$$$
>  <COMPOUND>
O=c1[nH]cc(-c2cc([C@H]3C[C@@H]3c3ccc4nc(C(F)(F)F)ccc4c3)c3nccn3n2)c(=O)[nH]1 (racemic) [Example 142]

>  <TARGET OR SYSTEM>
CD73 (Homo sapiens (Human), UniProt P21589)

>  <pIC50>
9.02

$$$$

a: O=c1[nH]cc(-c2cc(N3C[C@@H](F)[C@@H](F)C3)c3ncc(F)n3n2)c(=O)[nH]1
b: O=c1[nH]cc(-c2cc([C@H]3C[C@@H]3c3ccc4c(c3)OC(F)(F)O4)c3nccn3n2)c(=O)[nH]1 (racemic) [Example 360]
Please let me know which one, a or b , has a lower measured pIC50 value. Mark your selection by writing its label.
a
(a: 8.14, b: 9.04)

###

# TARGET OR SYSTEM: CD73 (Homo sapiens (Human), UniProt P21589)
# Format: biochemical
# EXPERIMENTAL CONDITIONS: 1 mM NaH2PO4 in enzyme buffer, CD73 0.3 nM, AMP 15 uM
READOUT LABEL: IC50 (nM)

I: CC1(O)CCN(c2cc(-c3c[nH]c(=O)[nH]c3=O)nc3ccnn23)C1 (centres unmarked)
II: O=C(OCc1ccccc1)N1CC2(C1)CN(c1cc(-c3c[nH]c(=O)[nH]c3=O)nn3ccnc13)CC2(F)F
Given the two records I and II , choose the one whose IC50 value is lower. Select an item and report its label.
II
(II: 5.61 nM, I: 168 nM)

P: O=c1[nH]cc(-c2cc([C@H]3C[C@@H]3c3ncc(Cl)cc3F)c3ncc(F)n3n2)c(=O)[nH]1 [Example 588]
Q: Cc1ccc(NC(=O)O[C@H]2CN(c3cc(-c4c[nH]c(=O)[nH]c4=O)nn4ccnc34)CC2(F)F)c(F)c1
R: CC(C)Cc1cn2nc(-c3c[nH]c(=O)[nH]c3=O)cc(N3CC(F)(F)C4(CC4)C3)c2n1
S: COC(=O)N1CC2(C1)CN(c1cc(-c3c[nH]c(=O)[nH]c3=O)nn3ccnc13)CC2(F)F
Rank entries according to their IC50, from the largest number down. Note for the reader: the ranking is given by listing the labels in the order requested.
R, S, Q, P

1: O=c1[nH]cc(-c2cc([C@H]3C[C@@H]3c3ccc4ncsc4c3)c3nccn3n2)c(=O)[nH]1 (racemic)
2: CC1(C)CN(c2cc(-c3c[nH]c(=O)[nH]c3=O)nn3ncnc23)CC1(F)F
3: N#CC12CC1CN(c1cc(-c3c[nH]c(=O)[nH]c3=O)nn3ccnc13)C2 (centres unmarked)
4: O=c1[nH]cc(-c2cc([C@H]3C[C@@H]3c3ncc4cnn(CC(F)(F)F)c4c3F)c3nccn3n2)c(=O)[nH]1 (racemic)
Rank descending by IC50. Would you mind listing the labels in the order asked for?
3, 4, 1, 2
